Where do the numbers come from? From patent US20100266716A1.

# System: Salmonella choleraesuis
# assayOverview: MBEC device biofilm photodynamic killing (Example 1)
# Assay type: cell-based
# Set-up: key: “−” = biofilm eradication at the mentioned conditions (concentration, exposure time and Light source); “+” = biofilm growth
# experimentalContext: LED Light, 16 Hours exposure, 0.01%
observable: Killing of Salmonella cholerasuis biofilm (eradication or growth)

[Q] Which measured Killing of Salmonella cholerasuis biofilm (eradication or growth) value corresponds to O=S(=O)([O-])c1ccc(N=Nc2c(O)ccc3cc(S(=O)(=O)[O-])ccc23)cc1.[Na+].[Na+] ?
[A] +

[Q] One more compound: CN(C)c1ccc2nc3ccc(=[N+](C)C)cc-3sc2c1 [Methylene blue, reference compound]
[A] −

[Q] One more compound: O=C([O-])C1=NN(c2ccc(S(=O)(=O)[O-])cc2)C(=O)C1N=Nc1ccc(S(=O)(=O)[O-])cc1.[Na+].[Na+].[Na+] (stereo not drawn)
[A] +

====

# System: Staphylococcus aureus
# assayOverview: MBEC device biofilm photodynamic killing (Example 1)
# Assay type: cell-based
# Design: key: “−” = biofilm eradication at the mentioned conditions (concentration, exposure time and Light source); “+” = biofilm growth
# experimentalContext: Fluorescent Light, 16 Hours exposure, 1%
observable: Killing of Staph aureus biofilm (eradication or growth)

[Q] Could you share what Killing of Staph aureus biofilm (eradication or growth) was measured for O=S(=O)([O-])c1ccc2c(N=Nc3ccc(S(=O)(=O)[O-])c4ccccc34)c(O)c(S(=O)(=O)[O-])cc2c1.[Na+].[Na+].[Na+] [Red No. 2, FD&C Red No. 2 (Amaranth)] , tested on Staphylococcus aureus?
[A] +

[Q] One more compound: Cc1cc2nc3c(=O)[nH]c(=O)nc-3n(C[C@H](O)[C@H](O)[C@H](O)CO)c2cc1C [Riboflavin, riboflavin]
[A] +

[Q] One more compound: CN(C)c1ccc2nc3ccc(=[N+](C)C)cc-3sc2c1 [Methylene blue, reference compound]
[A] −

====

# Tested on: Salmonella choleraesuis
# assayOverview: MBEC device biofilm photodynamic killing (Example 1)
# Assay type: cell-based
# Design: key: “−” = biofilm eradication at the mentioned conditions (concentration, exposure time and Light source); “+” = biofilm growth
# experimentalContext: LED Light, 16 Hours exposure, 0.01%
observable: Killing of Salmonella cholerasuis biofilm (eradication or growth)

[Q] Which measured Killing of Salmonella cholerasuis biofilm (eradication or growth) value corresponds to O=S(=O)([O-])c1ccc2c(N=Nc3ccc(S(=O)(=O)[O-])c4ccccc34)c(O)c(S(=O)(=O)[O-])cc2c1.[Na+].[Na+].[Na+] ?
[A] +

[Q] One more compound: O=C1/C(=C2\Nc3ccc(S(=O)(=O)[O-])cc3C2=O)Nc2ccc(S(=O)(=O)[O-])cc21.[Na+].[Na+]
[A] +

[Q] One more compound: CC1=C(/C=C/C(C)=C/C=C/C(C)=C/C=C/C=C(C)/C=C/C=C(C)/C=C/C2=C(C)CCCC2(C)C)C(C)(C)CCC1
[A] +
